FYI, the data here is from paper PMC10726355.

System: S. mansoni schistosomula
Assay: Ex vivo schistosomula screening (Roboworm high content imaging)
Design: species or system Schistosoma mansoni
Conditions: Schistosoma mansoni; ethyl esters (R=Et); 72 h; 95% CI in brackets; read-out: Schistosomla Phenotype EC50
Provide the recorded EC50 for the entries that follow.
Write the value in µM as a bare number.

Ask | Form entry - test system: S. mansoni schistosomula; read-out: EC50; compound: CCOC(=O)c1ccc(-c2ccc3c(c2)[C@H](Nc2ccc4[nH]ccc4c2)C[C@H](C)N3C(C)=O)cc1 [Compound 20]
Reply | 2.97

Ask | Return EC50 measured with S. mansoni schistosomula given this compound: CCOC(=O)c1ccc(-c2ccc3c(c2)[C@H](Nc2ccc4ccoc4c2)C[C@H](C)N3C(C)=O)cc1 [Compound 18]
Reply | 2.43

Ask | Find EC50 (S. mansoni schistosomula) for the entry CCOC(=O)c1ccc(-c2ccc3c(c2)[C@H](Nc2ccc4ncccc4c2)C[C@H](C)N3C(C)=O)cc1 [Compound 22]
Reply | 1.11

Ask | Look up EC50 with S. mansoni schistosomula for this compound: CCOC(=O)c1ccc(-c2ccc3c(c2)[C@H](Nc2ccc4ncsc4c2)C[C@H](C)N3C(C)=O)cc1 [Compound 21]
Reply | 2.14
